Values were extracted from the supplement of paper PMC7125110.

B1: glmS ribozyme (parent)
chain: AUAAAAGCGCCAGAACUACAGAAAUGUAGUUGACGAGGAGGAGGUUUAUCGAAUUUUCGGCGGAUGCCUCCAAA

# Variants of: B1
# METHOD_SUMMARY: self-cleavage kobs at 160 uM GlcN6P; higher = faster cleavage; RNA array
# CONDITION_SET: with glucosamine-6-phosphate
This sample holds only a part of the variants without activity.
VALUE_KIND: self-cleavage kobs at 160 uM GlcN6P (s⁻¹)
Use s⁻¹ as the unit, but write only the number.

-- ask Answer with the recorded self-cleavage kobs at 160 uM GlcN6P of AUAAAAGCGCCAGAACUACAGAAAUGUAGUUGACGAGGAGGAGGUUUAUCGAAUUAUAGGCGGAUGCCUCCAAA [U56A C58A] only.
-- reply 3.2e-05

-- ask Supply reported self-cleavage kobs at 160 uM GlcN6P belonging to this variant: AUAAAAGCGCCAGGAGUACAGAAAUGUAGUUGACGAGGAGGAGGUUUAUCGAAUUUUCGGCGGAUGCCUCCAAA [A14G C16G]
-- reply 0.00113
